target: Rap guanine nucleotide exchange factor 3 (Homo sapiens); experiment: Confirmatory qHTS for antagonist of cAMP-regulated guanine nucleotide exchange factor 3 (EPAC1) (AID 1645880); conditions: EPAC1 Rap1B-BODIPY-GDP exchange, fluorescence; note: nearly all actives have a fitted effect of over 55% in size
Results filed as inconclusive are left out. Calls of active or inactive are those of the source. Calls come from the whole dose curve; as a rule, active = well fitted inhibition curve with a large enough effect; inconclusive = small, poorly fitted or top-dose-only effect; inactive = no such curve, though single readings can be large or run the other way.
Your response should consist of one outcome taken from active, inactive

Per the assay record, what outcome was assigned to O=C(Nc1nc2ccc(Cl)cc2s1)C1CCCO1 (stereo unspecified) ?
inactive

Per the assay record, what outcome was assigned to CC(=O)c1c(-c2ccccc2)c2cc(Cl)ccc2n(C)c1=O ?
inactive

Per the assay record, what outcome was assigned to O=C(COc1ccccc1Cl)Nc1ccc(C(=O)c2ccc(C(=O)O)cc2)cc1 ?
inactive

Per the assay record, what outcome was assigned to Cc1ccc(-c2nc3ccc(C)cn3c2CC2CCCCC2)cc1 ?
inactive

Per the assay record, what outcome was assigned to COc1ccc(NC(=O)c2cc(-c3ccco3)nc3ccccc23)cc1S(=O)(=O)N1CCOCC1 ?
active

Per the assay record, what outcome was assigned to COc1cc(SC)ccc1C(=O)NC1CCCc2ccccc21 (stereo unspecified) ?
inactive

Per the assay record, what outcome was assigned to Cc1nn(-c2ccccc2)c(Cl)c1/C=N/Nc1ccc(S(=O)(=O)Nc2ccccc2C(=O)O)cc1[N+](=O)[O-] ?
active

Per the assay record, what outcome was assigned to CCOc1ccc2nc(S(=O)(=O)NC(=O)C3(C)CCN3C(=O)CCc3cccs3)sc2c1 (stereo unspecified) ?
inactive

Per the assay record, what outcome was assigned to COc1ccc2c(c1)CCc1c(C(=O)N3CCCc4ccccc43)noc1-2 ?
inactive

Per the assay record, what outcome was assigned to Cc1ccc(S(=O)c2ccc([N+](=O)[O-])c3nonc23)cc1 (stereo unspecified) ?
active

Per the assay record, what outcome was assigned to COc1ccc(CCNc2oc(-c3ccc(C)cc3)nc2C#N)cc1OC ?
inactive

====

Molecular target: Rap guanine nucleotide exchange factor 3 (Homo sapiens) (UniProt O95398)
Sequence (O95398 whole entry, looked up): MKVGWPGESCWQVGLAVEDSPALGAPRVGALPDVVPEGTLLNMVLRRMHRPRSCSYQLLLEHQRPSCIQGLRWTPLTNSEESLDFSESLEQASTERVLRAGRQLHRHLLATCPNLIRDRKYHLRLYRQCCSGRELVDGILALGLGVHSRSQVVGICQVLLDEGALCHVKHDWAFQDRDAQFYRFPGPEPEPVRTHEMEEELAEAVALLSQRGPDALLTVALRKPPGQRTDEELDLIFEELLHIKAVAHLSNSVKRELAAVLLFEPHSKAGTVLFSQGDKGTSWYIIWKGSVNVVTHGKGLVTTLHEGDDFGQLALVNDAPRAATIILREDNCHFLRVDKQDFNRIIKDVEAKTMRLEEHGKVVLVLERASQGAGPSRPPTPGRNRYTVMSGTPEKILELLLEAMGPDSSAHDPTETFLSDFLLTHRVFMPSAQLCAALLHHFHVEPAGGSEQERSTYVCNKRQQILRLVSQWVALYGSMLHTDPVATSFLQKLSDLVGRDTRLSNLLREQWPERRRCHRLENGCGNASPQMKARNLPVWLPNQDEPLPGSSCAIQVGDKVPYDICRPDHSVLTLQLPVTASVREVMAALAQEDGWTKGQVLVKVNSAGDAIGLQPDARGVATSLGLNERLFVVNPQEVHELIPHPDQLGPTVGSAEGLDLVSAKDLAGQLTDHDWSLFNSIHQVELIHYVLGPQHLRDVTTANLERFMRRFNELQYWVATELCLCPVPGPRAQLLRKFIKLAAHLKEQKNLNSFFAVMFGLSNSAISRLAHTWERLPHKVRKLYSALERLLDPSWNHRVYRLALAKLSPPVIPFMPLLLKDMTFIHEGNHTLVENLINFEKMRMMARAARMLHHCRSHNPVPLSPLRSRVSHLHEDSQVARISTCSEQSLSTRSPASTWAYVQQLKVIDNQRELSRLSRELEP
Assay: Counterscreen qHTS for antagonist of cAMP-regulated guanine nucleotide exchange factor 3 (EPAC1) (AID 1645888);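 note: fluorescence loss as bound BODIPY-GDP is released from Rap1B; % of control where 0% means no effect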
Conditions: Rap1B-BODIPY-GDP nucleotide exchange, fluorescence; series mostly up to 154 µM
Excerpt: Assay Provider (PI): Xiaodong Cheng Ph.D. The University of Texas Medical Branch, […], TX MLPCN Grant: NS066510 In multi-cellular eukaryotic organisms, the effects of cAMP are transduced by two ubiquitously-expressed intracellular cAMP receptors, the classic protein kinase A/cAMP-dependent protein kinase (PKA/cAPK) and the more recently discovered exchange protein directly activated by cAMP/cAMP-regulated guanine nucleotide exchange factor (EPAC/cAMP-GEF). […]
Inconclusive results are not listed. Active and inactive are the calls of the source. Calls follow the shape of the dose curve; as a rule, active = well fitted inhibition curve with a large enough effect; inconclusive = small, poorly fitted or top-dose-only effect; inactive = no such curve, though single readings can be large or run the other way.
parameter: activity change, negative = inhibition

[
  {
    "molecule": "CC(C)c1ccc(/C=C/C(=O)Nc2ccc(CN3CCOCC3)cc2)cc1",
    "parameter": "activity change, negative = inhibition",
    "dataValue": "inactive"
  },
  {
    "molecule": "CCSc1nc(C)cc(C)c1S(=O)(=O)c1ccccc1C",
    "parameter": "activity change, negative = inhibition",
    "dataValue": "8% [at 30.8 µM] (inactive)"
  },
  {
    "molecule": "Cc1ccc(N=Cc2c(O)c3ccccc3n(C)c2=O)cc1",
    "parameter": "activity change, negative = inhibition",
    "dataValue": "inactive"
  },
  {
    "molecule": "COc1cc(-c2cc(OC)c3c(C)oc(C)c3c(=O)c2)ccc1OC(=O)c1ccc(C)cc1",
    "parameter": "activity change, negative = inhibition",
    "dataValue": "inactive"
  },
  {
    "molecule": "COc1ccc(/C=N/Nc2ncnc3sc(C)c(C)c23)cc1",
    "parameter": "activity change, negative = inhibition",
    "dataValue": "inactive"
  }
]

Recall the recorded activity change, negative = inhibition for O=[N+]([O-])c1ccc(-n2nnnc2-c2ccccc2)c([N+](=O)[O-])c1 with Rap guanine nucleotide exchange factor 3 (Homo sapiens) (UniProt O95398) and state it.
inactive

Recall the recorded activity change, negative = inhibition for CN(C)c1ccc(-c2cc3ccccc3c(=O)o2)cc1 with Rap guanine nucleotide exchange factor 3 (Homo sapiens) (UniProt O95398) and state it.
inactive

Recall the recorded activity change, negative = inhibition for O=C(c1ccco1)N(Cc1cccs1)c1ccc(F)cc1 with Rap guanine nucleotide exchange factor 3 (Homo sapiens) (UniProt O95398) and state it.
inactive

====

target: Rap guanine nucleotide exchange factor 3 (Homo sapiens); test: Counterscreen qHTS for agonist of cAMP-regulated guanine nucleotide exchange factor 3 (EPAC1) (AID 1645889); settings: EPAC1 Rap1B-BODIPY-GDP exchange, fluorescence; series mostly up to 154 µM; note: % of control where 0% means no effect; nearly all actives have a fitted effect of over 40% in size
Inconclusive results are not listed. Active and inactive are the calls of the source. The call rests on the fitted dose curve; in most records, active means well fitted activation curve with a large enough effect; inconclusive means small, poorly fitted or top-dose-only effect, or another doubt; inactive means no such curve, though single readings can be large or run the other way.
parameter: activation

Solved entries:
[
  {
    "compound": "Cc1ccnc(NC(=O)C2CCN(S(=O)(=O)c3cccc(C(F)(F)F)c3)CC2)c1",
    "targetEntity": "Rap guanine nucleotide exchange factor 3 (Homo sapiens)",
    "activation": "inactive"
  },
  {
    "compound": "CC(C)(C)C(=O)N1CCC2CC1c1cc(-c3ccc4c(c3)OCO4)ccc12 (stereo not given)",
    "targetEntity": "Rap guanine nucleotide exchange factor 3 (Homo sapiens)",
    "activation": "13.1% [at 30.8 µM] (inactive)"
  },
  {
    "compound": "CCCCOc1ccc(/C=C/C(=O)OCC(=O)NC(=O)NCC(C)C)cc1OCC",
    "targetEntity": "Rap guanine nucleotide exchange factor 3 (Homo sapiens)",
    "activation": "inactive"
  },
  {
    "compound": "Nc1nnc(CC(=O)N/N=C/c2cc([N+](=O)[O-])cc(Br)c2O)s1",
    "targetEntity": "Rap guanine nucleotide exchange factor 3 (Homo sapiens)",
    "activation": "inactive"
  }
]

Sample CCCN1C(=O)c2[nH]nc(-c3ccc(F)cc3)c2C1c1ccc(O)c(OCC)c1 (stereo not given) — what was its activation?
inactive

====

target: Rap guanine nucleotide exchange factor 3 (Homo sapiens) (UniProt O95398); experiment: Confirmatory qHTS for antagonist of cAMP-regulated guanine nucleotide exchange factor 3 (EPAC1) (AID 1645880); conditions: EPAC1 Rap1B-BODIPY-GDP exchange, fluorescence; note: nearly all actives have a fitted effect of over 55% in size
Inconclusive results are not listed. Activity calls are given as the source filed them. Calls come from the whole dose curve; as a rule, active = well fitted inhibition curve with a large enough effect; inconclusive = small, poorly fitted or top-dose-only effect; inactive = no such curve, though single readings can be large or run the other way.
Your response should consist of one outcome taken from active, inactive

Per the assay record, what outcome was assigned to COc1ccc(Cn2c(=O)cc(C)[nH]c2=S)cc1 ?
inactive

Per the assay record, what outcome was assigned to CSCCC(NS(=O)(=O)c1ccc2c(c1)oc(=O)n2C)C(=O)NC1CCCCC1 (stereo not drawn) ?
inactive

Per the assay record, what outcome was assigned to O=C1CC2(CCN(S(=O)(=O)c3ccccc3F)CC2)Oc2ccccc21 ?
inactive

Per the assay record, what outcome was assigned to O=C1c2ccccc2C(Nc2cccnc2)N1Cc1ccccc1Cl (stereo not drawn) ?
inactive

Per the assay record, what outcome was assigned to Cc1ccc(-c2nnc(Nc3ccc4c(c3)nc(C)n4C)c3ccccc23)cc1 ?
inactive

Per the assay record, what outcome was assigned to CCn1nc(C)c(C(=O)Nc2cc(Oc3ccc(Cl)cc3)cc([N+](=O)[O-])c2)c1C ?
inactive

Per the assay record, what outcome was assigned to COC(=O)C1=NN(c2ccccc2)C2(S1)SC(C(C)=O)=C(C)N2c1ccccc1 (stereo not drawn) ?
inactive

Per the assay record, what outcome was assigned to CC1Cc2nc(SCC(=O)N3CCCc4ccccc43)n(C)c(=O)c2S1 (stereo not drawn) ?
inactive

Per the assay record, what outcome was assigned to COc1ccc(NC(=O)N2CCN3CCCCC3C2)cc1OC (stereo not drawn) ?
inactive

Per the assay record, what outcome was assigned to COCc1cc(C)nc(SCC(=O)c2ccc(O)c(O)c2)c1C#N ?
active

Per the assay record, what outcome was assigned to CCN(CC)c1ccc2cc(C=O)c(=O)oc2c1 ?
inactive

Per the assay record, what outcome was assigned to C=C1SC(Nc2c(C)cc(C)cc2C)=NC12CCCCC2 ?
inactive

Per the assay record, what outcome was assigned to O=C(O)c1ccc(COc2ccccc2/C=C2/NC(=O)N(c3cccc(Cl)c3)C2=O)cc1 ?
active

Per the assay record, what outcome was assigned to O=C(c1noc2c1CCc1ccccc1-2)N1CCCc2ccccc21 ?
inactive

Per the assay record, what outcome was assigned to CCN1CCc2c(sc(NC(=O)CSc3ccccc3)c2-c2nc3ccccc3s2)C1 ?
inactive

Per the assay record, what outcome was assigned to CCOC(=O)c1cc2n(c1/N=C/N(C)C)-c1ccccc1C2=O ?
inactive

Per the assay record, what outcome was assigned to Cc1ccc(/C(O)=C2/C(=O)C(=O)OC2c2ccc(Cl)cc2)cc1 (stereo not drawn) ?
active

Per the assay record, what outcome was assigned to Cc1cc(Br)cc(C=Nc2ccc(N3CCOCC3)cc2)c1O ?
inactive

Per the assay record, what outcome was assigned to COc1ccc(N(C(=O)c2ccco2)S(=O)(=O)c2cc(OC)ccc2OC)cc1 ?
inactive

Per the assay record, what outcome was assigned to COC(=O)c1cc2occc2n1Cc1cccc(C)c1 ?
inactive

Per the assay record, what outcome was assigned to O=C(c1cc(-c2ccc(Cl)cc2)nc2ccccc12)N1CCC1 ?
inactive

Per the assay record, what outcome was assigned to C(=C(c1ccccc1)c1ccccc1)c1ccccn1 ?
inactive

Per the assay record, what outcome was assigned to O=C1N(Cc2ccccc2)c2ccc(Cl)cc2C12OCCO2 ?
inactive
